// provenance: patent US4327097A

# system under test: β-lactamase, Proteus vulgaris GN 76 (Proteus vulgaris, UniProt P52664)
# Construct: By using the supernatant of enzyme fluid; endogenous in cells; host or cells: Proteus vulgaris GN 76 (penicillin G-induced cells, sonicated, 15,000 r.p.m. supernatant)
# Sequence (P52664 30-300): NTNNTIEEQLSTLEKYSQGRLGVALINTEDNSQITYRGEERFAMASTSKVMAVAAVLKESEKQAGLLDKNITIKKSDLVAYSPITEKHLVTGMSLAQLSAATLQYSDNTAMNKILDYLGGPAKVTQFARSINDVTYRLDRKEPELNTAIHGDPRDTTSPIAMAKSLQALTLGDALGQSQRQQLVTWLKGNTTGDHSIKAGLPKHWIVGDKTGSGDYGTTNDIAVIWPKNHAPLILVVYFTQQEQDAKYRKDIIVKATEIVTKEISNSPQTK
# test name: Resistant activity against β-lactamase, iodometric assay
# Assay type: biochemical
# conditions used: control Cephalorizine = 100
# Relative activity (%) against β-lactamase, Pr. vulgaris GN 76 listing for each entry below
Response body: numeric value in %, unit text excluded.

Completed entries (count: 4):
>  <compound>
CC(=O)OCC1=C(C(=O)O)N2C(=O)[C@@H](NC(=O)[C@H](N)c3ccccc3)[C@H]2SC1 [Sodium Cephaloglycin, reference compound]

>  <val>
1300

$$$$
>  <compound>
CC1=C(C(=O)O)N2C(=O)[C@@H](NC(=O)[C@H](N)c3ccccc3)[C@H]2SC1 [Sodium Cephalexin, reference compound]

>  <val>
150

$$$$
>  <compound>
CCN1CCN(C(=O)NC(C(=O)NC2C(=O)N3C(C(=O)O)=C(CSc4nnnn4C)CSC23)c2ccccc2)C(=O)C1=O (stereo not shown)

>  <val>
4

$$$$
>  <compound>
CN1CCN(C(=O)NC(C(=O)NC2C(=O)N3C(C(=O)O)=C(CSc4nnnn4C)CSC23)c2ccccc2)C(=O)C1=O (single isomer, unassigned)

>  <val>
6

$$$$

Asked: GET /values?readout=Relative activity (%) against β-lactamase, Pr. vulgaris GN 76&item= CCN1CCN(C(=O)NC(C(=O)NC2C(=O)N3C(C(=O)O)=C(COC(N)=O)CSC23)c2ccc(O)cc2)C(=O)C1=O (single isomer, unassigned)
Given back: 10

Asked: And for O=C(Cc1cccs1)N[C@@H]1C(=O)N2C(C(=O)[O-])=C(C[n+]3ccccc3)CS[C@H]12 [Cephalorizine, reference compound] ?
Given back: 100

Asked: Same for CCN1CCN(C(=O)NC(C(=O)NC2C(=O)N3C(C(=O)O)=C(CSc4nnnn4C)CSC23)c2ccc(O)cc2)C(=O)C1=O (stereo not shown)
Given back: 7
